Assay: TRH concentration in plasma after transdermal application (radioimmunoassay)
Format: in vivo, SD rats
Details: rat, plasma, topical or ocular; comparison: 10% polyvinyl alcohol gel pH 4, 2% TRH (16 mg), 8 cm^2; 2 h after administration
Procedure: The above transdermal therapeutic composition was put on a clipped abdomen of male SD rats (7-week-old, 240 to 270 g, 4 heads) and fixed with a surgical tape. After 0.5, 1, 2, 4, 6 and 24 hours, the blood was collected from the tail vein. […] The TRH concentration in the plasma was determined by the below-mentioned radioimmunoassay. […] The supernatant was removed by centrifugation at 3000 rpm, and the radioactivity of the precipitate was determined by a γ counter. […]
experimental readout: concentration at 2 h (ng/mL)
Express it in ng/mL; write the number only.

Prompt: Report concentration at 2 h for NC(=O)[C@@H]1CCCN1C(=O)[C@H](Cc1cnc[nH]1)NC(=O)[C@@H]1CCC(=O)N1 [TRH, L-pyroglutamyl-L-histidyl-L-prolinamide] please.
Completion: 4.5

* * *

assay: Molsidomine concentration in plasma after transdermal application (HPLC); assay type: in vivo, SD rats; conditions: rat, plasma, topical or ocular; Example 5 composition, 24 h after administration
experimental readout: concentration at 24 h (ng/mL)
Express it in ng/mL; write the number only.

Prompt: Report concentration at 24 h for CCOC(=O)[N-]c1cn(N2CCOCC2)n[o+]1 please.
Completion: 169

* * *

assay: TRH concentration in plasma after transdermal application (radioimmunoassay); format: in vivo, SD rats; conditions: rat, plasma, topical or ocular; comparison: 10% polyvinyl alcohol gel pH 4, 2% TRH (16 mg), 8 cm^2; 6 h after administration
experimental readout: concentration at 6 h (ng/mL)
Express it in ng/mL; write the number only.

Prompt: Report concentration at 6 h for NC(=O)[C@@H]1CCCN1C(=O)[C@H](Cc1cnc[nH]1)NC(=O)[C@@H]1CCC(=O)N1 [TRH, L-pyroglutamyl-L-histidyl-L-prolinamide] please.
Completion: 1.8

* * *

assay: Vinpocetine concentration in plasma after transdermal application (HPLC); format: in vivo, SD rats; details: rat, plasma, topical or ocular; Example 7 composition, 6 h after administration
experimental readout: concentration at 6 h

Prompt: Report concentration at 6 h for CCOC(=O)C1=C[C@]2(CC)CCCN3CCc4c(n1c1ccccc41)[C@@H]32 [vinpocetine, apovincamic acid ethyl ester] please.
Completion: 74.1 ng/mL

* * *

assay: TRH concentration in plasma after transdermal application (radioimmunoassay); type: in vivo, SD rats; details: rat, plasma, topical or ocular; comparison: 10% polyvinyl alcohol gel pH 4, 2% TRH (16 mg), 8 cm^2; 4 h after administration
experimental readout: concentration at 4 h (ng/mL)
Express it in ng/mL; write the number only.

Prompt: Report concentration at 4 h for NC(=O)[C@@H]1CCCN1C(=O)[C@H](Cc1cnc[nH]1)NC(=O)[C@@H]1CCC(=O)N1 [TRH, L-pyroglutamyl-L-histidyl-L-prolinamide] please.
Completion: 3

* * *

Experiment: TRH concentration in plasma after transdermal application (radioimmunoassay)
Type: in vivo, SD rats
Settings: rat, plasma, topical or ocular; Example 6 composition, 2 h after administration
Method: The above transdermal therapeutic composition was put on a clipped abdomen of male SD rats (7-week-old, 240 to 270 g, 4 heads) and fixed with a surgical tape. After 0.5, 1, 2, 4, 6 and 24 hours, the blood was collected from the tail vein. […] The TRH concentration in the plasma was determined by the below-mentioned radioimmunoassay. […] The supernatant was removed by centrifugation at 3000 rpm, and the radioactivity of the precipitate was determined by a γ counter. […]
experimental readout: concentration at 2 h

Prompt: Report concentration at 2 h for NC(=O)[C@@H]1CCCN1C(=O)[C@H](Cc1cnc[nH]1)NC(=O)[C@@H]1CCC(=O)N1 [TRH, L-pyroglutamyl-L-histidyl-L-prolinamide] please.
Completion: 110 ng/mL
